Tested on: HIV-1 single-round infectious reporter virus
EXPERIMENTAL DETAILS: Single-round infectious HIV-1 luciferase reporter virus infection of HeLa CD4 cells (antiviral EC50)
Format: cell-based
ASSAY CONDITIONS: Human immunodeficiency virus 1, HeLa, read-out: EC50 Group from Table 3
Here, each record is paired with measured EC50 data.
MEASURE NAME: EC50

1. C[C@@H]1CN(c2nnnn2-c2ccccc2)[C@@H](C)CN1C(=O)C(=O)c1c[nH]c2c(-n3ccnn3)ncc(F)c12 :: < 500 nM
2. COc1cnc(-c2ccc(N3CCN(C(=O)OC(C)C)CC3)cc2)c2[nH]cc(C(=O)C(=O)N3CCN(c4nnnn4-c4ccccn4)CC3)c12 :: < 500 nM
3. Nc1ccnn1-c1ncc(F)c2c(C(=O)C(=O)N3CCN(c4nnnn4-c4ccccc4)CC3)c[nH]c12 :: < 500 nM
4. O=C(C(=O)N1CCC(N2CCN=C2c2ccccc2)CC1)c1c[nH]c2c(-n3ccnn3)ncc(F)c12 [G-10a] :: > 500 nM
5. O=C(NCCN1CCCC1)c1cc(-c2ncc(F)c3c(C(=O)C(=O)N4CCN(c5nnnn5-c5ccccc5)CC4)c[nH]c23)n[nH]1 :: < 500 nM
6. C[C@@H]1CN(C(=O)C(=O)c2c[nH]c3c(Cl)ncc(O)c23)CCN1c1nnnn1-c1ccccc1 :: > 500 nM
7. COc1cnc(-c2cc(CO)[nH]n2)c2[nH]cc(C(=O)C(=O)N3CCN(c4nnnn4-c4ccccn4)CC3)c12 :: < 500 nM

Value source: patent US7807676B2
